Let's look at some molecules and their measured Emax.
biological target: CB1 (mutant) (Homo sapiens, UniProt P21554); test: R-SAT functional receptor assay, CB1 (mutant, truncated after amino acid 417); assay type: cell-based; conditions: Appendix A; R-SAT CB1; receptor form not stated; relative to SR141716 (100%); read-out: % Inhibition
Sequence (P21554 1-417, change not shown): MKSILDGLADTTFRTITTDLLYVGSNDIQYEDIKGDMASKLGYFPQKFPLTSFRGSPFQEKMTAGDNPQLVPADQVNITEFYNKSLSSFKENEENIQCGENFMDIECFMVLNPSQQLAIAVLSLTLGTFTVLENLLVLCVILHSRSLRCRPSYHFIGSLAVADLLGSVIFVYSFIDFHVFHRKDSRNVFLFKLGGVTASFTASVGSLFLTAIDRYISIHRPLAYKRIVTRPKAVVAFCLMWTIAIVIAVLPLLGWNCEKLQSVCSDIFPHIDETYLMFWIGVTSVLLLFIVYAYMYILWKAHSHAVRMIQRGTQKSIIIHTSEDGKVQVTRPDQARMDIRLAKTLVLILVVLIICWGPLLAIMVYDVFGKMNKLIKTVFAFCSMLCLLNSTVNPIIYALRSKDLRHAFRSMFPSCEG

>  <molecule>
CCCCNC(=O)c1ccc2c(c1)N=C(c1cccc(F)c1)c1ccccc1S2 [drawing 719]

>  <study-target>
CB1 (mutant) (Homo sapiens, UniProt P21554)

>  <Emax>
113%

$$$$
>  <molecule>
CCCCNC(=O)c1ccc2c(c1)N=C(C#C[Si](C)(C)C)c1ccccc1S2

>  <study-target>
CB1 (mutant) (Homo sapiens, UniProt P21554)

>  <Emax>
64%

$$$$
>  <molecule>
O=C(NCc1ccccn1)c1ccc2c(c1)N=C(c1ccccn1)c1ccccc1S2

>  <study-target>
CB1 (mutant) (Homo sapiens, UniProt P21554)

>  <Emax>
81%

$$$$
>  <molecule>
O=C(NC1CCCCNC1=O)c1ccc2c(c1)N=C(c1ccc(Cl)cc1)c1ccccc1S2 (stereo not shown)

>  <study-target>
CB1 (mutant) (Homo sapiens, UniProt P21554)

>  <Emax>
81%

$$$$
>  <molecule>
O=C(NNC(=O)c1ccc2c(c1)N=C(c1ccc(Br)cc1)c1ccccc1S2)c1ccccc1

>  <study-target>
CB1 (mutant) (Homo sapiens, UniProt P21554)

>  <Emax>
88%

$$$$
>  <molecule>
CCCC1=Nc2cc(C(=O)NCC3C=CC4=C(C3)OCO4)ccc2Sc2ccccc21 (stereo not shown)

>  <study-target>
CB1 (mutant) (Homo sapiens, UniProt P21554)

>  <Emax>
91%

$$$$
>  <molecule>
O=C(NCCc1ccccn1)c1ccc2c(c1)N=C(c1cccc(F)c1)c1ccccc1S2

>  <study-target>
CB1 (mutant) (Homo sapiens, UniProt P21554)

>  <Emax>
91%

$$$$
>  <molecule>
CCCCN(C)CCCNC(=O)c1ccc2c(c1)N=C(CCC)c1ccccc1S2

>  <study-target>
CB1 (mutant) (Homo sapiens, UniProt P21554)

>  <Emax>
124%

$$$$
>  <molecule>
Cc1csc(CNC(=O)c2ccc3c(c2)N=C(c2ccsc2)c2ccccc2S3)c1 [drawing 563]

>  <study-target>
CB1 (mutant) (Homo sapiens, UniProt P21554)

>  <Emax>
93%

$$$$
>  <molecule>
O=C(NN1CCOCC1)c1ccc2c(c1)N=C(c1cccc(Cl)c1)c1ccccc1S2

>  <study-target>
CB1 (mutant) (Homo sapiens, UniProt P21554)

>  <Emax>
80%

$$$$
>  <molecule>
O=C(NCCc1ccccc1)c1ccc2c(c1)N=C(c1ccc(F)cc1)c1ccccc1S2 [drawing 839]

>  <study-target>
CB1 (mutant) (Homo sapiens, UniProt P21554)

>  <Emax>
103%

$$$$
>  <molecule>
O=C(NC1CCCC1)c1ccc2c(c1)N=C(c1cccc(Cl)c1)c1ccccc1S2 [drawing 702]

>  <study-target>
CB1 (mutant) (Homo sapiens, UniProt P21554)

>  <Emax>
96%

$$$$
>  <molecule>
O=C(NN1CCCCC1)c1ccc2c(c1)N=C(c1ccccc1Cl)c1ccccc1S2

>  <study-target>
CB1 (mutant) (Homo sapiens, UniProt P21554)

>  <Emax>
45%

$$$$
>  <molecule>
O=C(NCc1ccc(Cl)cc1Cl)c1ccc2c(c1)N=C(c1ccccc1)c1ccccc1S2 [drawing 1167]

>  <study-target>
CB1 (mutant) (Homo sapiens, UniProt P21554)

>  <Emax>
91%

$$$$
>  <molecule>
O=C(NCCc1ccc(Cl)cc1)c1ccc2c(c1)N=C(c1ccc(Cl)cc1)c1ccccc1S2 [drawing 631]

>  <study-target>
CB1 (mutant) (Homo sapiens, UniProt P21554)

>  <Emax>
104%

$$$$
>  <molecule>
COc1cccc(C2=Nc3cc(C(=O)NCc4ccc(C)o4)ccc3Sc3ccccc32)n1 [drawing 554]

>  <study-target>
CB1 (mutant) (Homo sapiens, UniProt P21554)

>  <Emax>
84%

$$$$
>  <molecule>
CC(C)NC(=O)c1ccc2c(c1)N=C(c1ccccc1Cl)c1ccccc1S2

>  <study-target>
CB1 (mutant) (Homo sapiens, UniProt P21554)

>  <Emax>
46%

$$$$
>  <molecule>
O=C(NCc1cccs1)c1ccc2c(c1)N=C(c1cccc(F)c1)c1ccccc1S2 [drawing 595]

>  <study-target>
CB1 (mutant) (Homo sapiens, UniProt P21554)

>  <Emax>
100%

$$$$
>  <molecule>
CCOCCNC(=O)c1ccc2c(c1)N=C(NCc1ccc(Cl)cc1)c1ccccc1S2

>  <study-target>
CB1 (mutant) (Homo sapiens, UniProt P21554)

>  <Emax>
1%

$$$$
>  <molecule>
O=C(NCc1cccc(Cl)c1)c1ccc2c(c1)N=C(N1CCCCC1)c1cc(F)ccc1S2 [drawing 649]

>  <study-target>
CB1 (mutant) (Homo sapiens, UniProt P21554)

>  <Emax>
107%

$$$$
>  <molecule>
Cc1ccsc1C1=Nc2cc(C(=O)NCCc3cccnc3)ccc2Sc2ccccc21 [drawing 694]

>  <study-target>
CB1 (mutant) (Homo sapiens, UniProt P21554)

>  <Emax>
121%

$$$$
>  <molecule>
CCCC1=Nc2cc(C(=O)NC3CCC(C)CC3)ccc2Sc2ccccc21 (stereo not shown) [drawing 975]

>  <study-target>
CB1 (mutant) (Homo sapiens, UniProt P21554)

>  <Emax>
114%

$$$$
>  <molecule>
CCONC(=O)c1ccc2c(c1)N=C(c1sccc1C)c1ccccc1S2

>  <study-target>
CB1 (mutant) (Homo sapiens, UniProt P21554)

>  <Emax>
77%

$$$$
>  <molecule>
CCCC1=Nc2cc(C(=O)NCc3ccccc3)ccc2Sc2ccccc21

>  <study-target>
CB1 (mutant) (Homo sapiens, UniProt P21554)

>  <Emax>
111%

$$$$
>  <molecule>
O=C(NN1CCCCC1)c1ccc2c(c1)N=C(c1cccc(Cl)c1)c1ccccc1S2 [drawing 1127]

>  <study-target>
CB1 (mutant) (Homo sapiens, UniProt P21554)

>  <Emax>
106%

$$$$
>  <molecule>
CCCCNC(=O)c1ccc2c(c1)N=C(c1ccc(OC)cc1)c1ccccc1S2 [drawing 887]

>  <study-target>
CB1 (mutant) (Homo sapiens, UniProt P21554)

>  <Emax>
112%

$$$$
>  <molecule>
CCCCN(C)C(=O)c1ccc2c(c1)N=C(c1cccc(F)c1)c1ccccc1S2

>  <study-target>
CB1 (mutant) (Homo sapiens, UniProt P21554)

>  <Emax>
90%

$$$$
>  <molecule>
CCOC(=O)c1ccc(C2=Nc3cc(C(=O)NNC(=O)Cc4ccccc4)ccc3Sc3ccccc32)cc1

>  <study-target>
CB1 (mutant) (Homo sapiens, UniProt P21554)

>  <Emax>
61%

$$$$
>  <molecule>
Cc1ccsc1C1=Nc2cc(C(=O)NCc3ccncc3)ccc2Sc2ccccc21

>  <study-target>
CB1 (mutant) (Homo sapiens, UniProt P21554)

>  <Emax>
92%

$$$$
>  <molecule>
Cc1cccc(C2=Nc3cc(C(=O)NCC(C)C)ccc3Sc3ccccc32)n1 [drawing 809]

>  <study-target>
CB1 (mutant) (Homo sapiens, UniProt P21554)

>  <Emax>
82%

$$$$
>  <molecule>
O=C(NC1CCCC1)c1ccc2c(c1)N=C(c1ccccc1F)c1ccccc1S2

>  <study-target>
CB1 (mutant) (Homo sapiens, UniProt P21554)

>  <Emax>
79%

$$$$
>  <molecule>
CCCC1=Nc2cc(C(=O)NCc3ccc(OC)cc3)ccc2Sc2ccccc21

>  <study-target>
CB1 (mutant) (Homo sapiens, UniProt P21554)

>  <Emax>
96%

$$$$
>  <molecule>
CC(C)CNC(=O)c1ccc2c(c1)N=C(c1ccsc1)c1ccccc1S2 [drawing 581]

>  <study-target>
CB1 (mutant) (Homo sapiens, UniProt P21554)

>  <Emax>
90%

$$$$
>  <molecule>
O=C(NCc1cccnc1)c1ccc2c(c1)N=C(c1cccc(Br)c1)c1ccccc1S2 [drawing 895]

>  <study-target>
CB1 (mutant) (Homo sapiens, UniProt P21554)

>  <Emax>
105%

$$$$
>  <molecule>
O=C(NCc1cccc(Cl)c1)c1ccc2c(c1)N=C(c1ccccc1)c1ccccc1S2 [drawing 899]

>  <study-target>
CB1 (mutant) (Homo sapiens, UniProt P21554)

>  <Emax>
107%

$$$$
>  <molecule>
Cc1ccc(CNC(=O)c2ccc3c(c2)N=C(c2ccc(Cl)cc2)c2ccccc2S3)o1 [drawing 1141]

>  <study-target>
CB1 (mutant) (Homo sapiens, UniProt P21554)

>  <Emax>
93%

$$$$
>  <molecule>
CCCNC(=O)c1ccc2c(c1)N=C(c1ccccc1Cl)c1ccccc1S2

>  <study-target>
CB1 (mutant) (Homo sapiens, UniProt P21554)

>  <Emax>
78%

$$$$

* * *

biological target: UniProtKB P20272; assay: CB1 receptor rat binding assay ([3H]SR141716A, rat brain membranes); conditions: rat brain membranes, [3H]SR141716A
Sequence (P20272 whole entry): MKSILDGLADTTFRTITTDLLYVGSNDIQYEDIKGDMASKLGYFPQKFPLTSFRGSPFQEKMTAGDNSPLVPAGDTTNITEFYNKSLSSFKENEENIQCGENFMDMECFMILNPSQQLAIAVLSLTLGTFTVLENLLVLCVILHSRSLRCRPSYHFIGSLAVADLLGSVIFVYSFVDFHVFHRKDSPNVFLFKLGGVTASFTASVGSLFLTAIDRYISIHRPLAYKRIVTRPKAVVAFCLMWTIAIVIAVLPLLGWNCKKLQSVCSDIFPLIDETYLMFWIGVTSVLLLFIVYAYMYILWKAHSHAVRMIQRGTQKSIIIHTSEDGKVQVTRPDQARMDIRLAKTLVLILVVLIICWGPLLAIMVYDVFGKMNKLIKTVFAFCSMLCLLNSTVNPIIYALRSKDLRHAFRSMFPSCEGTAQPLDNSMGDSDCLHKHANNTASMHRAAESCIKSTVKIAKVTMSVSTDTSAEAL

>  <compound>
CCCCNC(=O)c1ccc2c(c1)N=C(c1ccc(Cl)cc1Cl)c1ccccc1S2 [drawing 1406]

>  <Binding rat Inh %, %>
98

$$$$
>  <compound>
O=C(NC1CCC(F)(F)CC1)c1ccc2c(c1)N=C(c1ccc(Cl)cc1)c1ccccc1S2

>  <Binding rat Inh %, %>
90

$$$$
>  <compound>
O=C(NCc1ccco1)c1ccc2c(c1)N=C(c1cccc(F)c1)c1ccccc1S2 [drawing 1252]

>  <Binding rat Inh %, %>
93

$$$$
>  <compound>
O=C(Cc1ccccc1)NNC(=O)c1ccc2c(c1)N=C(c1ccc(F)cc1)c1ccccc1S2 [drawing 1190]

>  <Binding rat Inh %, %>
65

$$$$
>  <compound>
CC(C)CNC(=O)c1ccc2c(c1)N=C(c1ccc(Cl)cc1)c1ccc(F)cc1S2 [drawing 1177]

>  <Binding rat Inh %, %>
89

$$$$
>  <compound>
CCCCNC(=O)c1ccc2c(c1)N=C(c1cccc(Cl)c1)c1cc(F)ccc1S2 [drawing 1447]

>  <Binding rat Inh %, %>
108

$$$$
>  <compound>
O=C(NC1CCC(F)(F)CC1)c1ccc2c(c1)N=C(c1cccc(Cl)c1)c1ccccc1S2 [drawing 1242]

>  <Binding rat Inh %, %>
79

$$$$
>  <compound>
CC(C)CNC(=O)c1ccc2c(c1)N=C(c1ccc(Cl)cn1)c1ccc(Cl)cc1S2 [drawing 1506]

>  <Binding rat Inh %, %>
90

$$$$
>  <compound>
Cc1ccc(CNC(=O)c2ccc3c(c2)N=C(c2ccc(Cl)s2)c2ccccc2S3)o1 [drawing 1223]

>  <Binding rat Inh %, %>
106

$$$$
>  <compound>
O=C(NCc1ccncc1)c1ccc2c(c1)N=C(c1ccc(Cl)cc1)c1ccccc1S2 [drawing 1294]

>  <Binding rat Inh %, %>
77

$$$$
>  <compound>
COc1ccc(C2=Nc3cc(C(=O)NCc4ccncc4)ccc3Sc3ccccc32)cc1 [drawing 1412]

>  <Binding rat Inh %, %>
67

$$$$
>  <compound>
O=C(NCc1ccncc1)c1ccc2c(c1)N=C(c1ccc(Br)cc1)c1ccccc1S2 [drawing 1453]

>  <Binding rat Inh %, %>
80

$$$$
>  <compound>
O=C(NCc1cccs1)c1ccc2c(c1)N=C(c1ccccc1F)c1ccccc1S2 [drawing 1227]

>  <Binding rat Inh %, %>
94

$$$$
>  <compound>
CC(C)CNC(=O)c1ccc2c(c1)N=C(c1ccc(Cl)cc1F)c1ccccc1S2 [drawing 1199]

>  <Binding rat Inh %, %>
94

$$$$
>  <compound>
CCCCNC(=O)c1ccc2c(c1)N=C(c1ccc(Cl)cc1)c1sccc1S2 [drawing 1247]

>  <Binding rat Inh %, %>
97

$$$$
>  <compound>
O=C(NC1CCC(F)(F)CC1)c1ccc2c(c1)N=C(c1ccccn1)c1ccccc1S2 [drawing 1414]

>  <Binding rat Inh %, %>
73

$$$$
>  <compound>
Cc1ccc(CNC(=O)c2ccc3c(c2)N=C(c2ccc(Cl)c(Cl)c2)c2ccccc2S3)o1 [drawing 1320]

>  <Binding rat Inh %, %>
96

$$$$
